- procedureDetails: Dynamic solubility test (water, SGF, FaSSIF, FeSSIF; 37° C.; 1, 4 and 24 hours)
- Format: physicochemical
- condition: FaSSIF, 37° C., 4 hrs
- Experimental: 0.2 g sodium chloride and 0.1 g Triton X-100 are weighted into a 100 mL volumetric flask. […] The dynamic solubility of crystalline form B/crystalline form C of 1,5-naphthalene disulfonate, crystalline form A of oxalate, crystalline form A of tartrate and free crystalline form A in water and three biological solvents were evaluated. […]
property: S: Solubility (free concentration) (µg/mL)

compound	observedMeasurement
CCCCCCCC(=O)N[C@H](CN1CCCC1)[C@H](O)c1ccc2c(c1)OCCO2.CCCCCCCC(=O)N[C@H](CN1CCCC1)[C@H](O)c1ccc2c(c1)OCCO2.O=S(=O)(O)c1cccc2c(S(=O)(=O)O)cccc12	2700

a: CCCCCCCC(=O)N[C@H](CN1CCCC1)[C@H](O)c1ccc2c(c1)OCCO2.CCCCCCCC(=O)N[C@H](CN1CCCC1)[C@H](O)c1ccc2c(c1)OCCO2.O.O.O=S(=O)(O)c1cccc2c(S(=O)(=O)O)cccc12
b: CCCCCCCC(=O)N[C@H](CN1CCCC1)[C@H](O)c1ccc2c(c1)OCCO2 [Free crystalline form A, reference compound]
Ask: # min-compare on S: Solubility (free concentration) between a and b Reply briefly: the label of your chosen item.
Result: a
(a: 2800 µg/mL, b: 4400 µg/mL)

###

- procedureDetails: Dynamic solubility test (water, SGF, FaSSIF, FeSSIF; 37° C.; 1, 4 and 24 hours)
- Type: physicochemical
- condition: FaSSIF, 37° C., 4 hrs
property: pH (of filtrate)

compound	pH (of filtrate)
CCCCCCCC(=O)N[C@H](CN1CCCC1)[C@H](O)c1ccc2c(c1)OCCO2.CCCCCCCC(=O)N[C@H](CN1CCCC1)[C@H](O)c1ccc2c(c1)OCCO2.O.O.O=S(=O)(O)c1cccc2c(S(=O)(=O)O)cccc12	6.48
CCCCCCCC(=O)N[C@H](CN1CCCC1)[C@H](O)c1ccc2c(c1)OCCO2.CCCCCCCC(=O)N[C@H](CN1CCCC1)[C@H](O)c1ccc2c(c1)OCCO2.O=S(=O)(O)c1cccc2c(S(=O)(=O)O)cccc12	6.51
CCCCCCCC(=O)N[C@H](CN1CCCC1)[C@H](O)c1ccc2c(c1)OCCO2 [Free crystalline form A, reference compound]	7.29
CCCCCCCC(=O)N[C@H](CN1CCCC1)[C@H](O)c1ccc2c(c1)OCCO2.CCCCCCCC(=O)N[C@H](CN1CCCC1)[C@H](O)c1ccc2c(c1)OCCO2.O=C(O)C(=O)O [Crystalline form A of oxalate]	6.48

###

- procedureDetails: Dynamic solubility test (water, SGF, FaSSIF, FeSSIF; 37° C.; 1, 4 and 24 hours)
- Type: physicochemical
- condition: H2O, 37° C., 12 hrs
property: pH (of filtrate)

compound	observedMeasurement
CCCCCCCC(=O)N[C@H](CN1CCCC1)[C@H](O)c1ccc2c(c1)OCCO2.CCCCCCCC(=O)N[C@H](CN1CCCC1)[C@H](O)c1ccc2c(c1)OCCO2.O.O.O=S(=O)(O)c1cccc2c(S(=O)(=O)O)cccc12	7.45
CCCCCCCC(=O)N[C@H](CN1CCCC1)[C@H](O)c1ccc2c(c1)OCCO2 [Free crystalline form A, reference compound]	8.80
CCCCCCCC(=O)N[C@H](CN1CCCC1)[C@H](O)c1ccc2c(c1)OCCO2.CCCCCCCC(=O)N[C@H](CN1CCCC1)[C@H](O)c1ccc2c(c1)OCCO2.O=C(O)C(=O)O [Crystalline form A of oxalate]	7.30
CCCCCCCC(=O)N[C@H](CN1CCCC1)[C@H](O)c1ccc2c(c1)OCCO2.CCCCCCCC(=O)N[C@H](CN1CCCC1)[C@H](O)c1ccc2c(c1)OCCO2.O=S(=O)(O)c1cccc2c(S(=O)(=O)O)cccc12	7.75

###

- procedureDetails: Dynamic solubility test (water, SGF, FaSSIF, FeSSIF; 37° C.; 1, 4 and 24 hours)
- Type: physicochemical
- condition: SGF, 37° C., 4 hrs
property: S: Solubility (free concentration) (µg/mL)

compound	property	observedMeasurement
CCCCCCCC(=O)N[C@H](CN1CCCC1)[C@H](O)c1ccc2c(c1)OCCO2.CCCCCCCC(=O)N[C@H](CN1CCCC1)[C@H](O)c1ccc2c(c1)OCCO2.O.O.O=S(=O)(O)c1cccc2c(S(=O)(=O)O)cccc12	S: Solubility (free concentration)	2400

A: CCCCCCCC(=O)N[C@H](CN1CCCC1)[C@H](O)c1ccc2c(c1)OCCO2.CCCCCCCC(=O)N[C@H](CN1CCCC1)[C@H](O)c1ccc2c(c1)OCCO2.O=S(=O)(O)c1cccc2c(S(=O)(=O)O)cccc12
B: CCCCCCCC(=O)N[C@H](CN1CCCC1)[C@H](O)c1ccc2c(c1)OCCO2 [Free crystalline form A, reference compound]
Ask: Larger number for S: Solubility (free concentration): A , or B ? Choose, then provide that item's label.
Result: B

###

- procedureDetails: Dynamic solubility test (water, SGF, FaSSIF, FeSSIF; 37° C.; 1, 4 and 24 hours)
- Type: physicochemical
- condition: FaSSIF, 37° C., 12 hrs
property: S: Solubility (free concentration) (mg/mL)

compound	observedMeasurement
CCCCCCCC(=O)N[C@H](CN1CCCC1)[C@H](O)c1ccc2c(c1)OCCO2.CCCCCCCC(=O)N[C@H](CN1CCCC1)[C@H](O)c1ccc2c(c1)OCCO2.O.O.O=S(=O)(O)c1cccc2c(S(=O)(=O)O)cccc12	3.0

P: CCCCCCCC(=O)N[C@H](CN1CCCC1)[C@H](O)c1ccc2c(c1)OCCO2.CCCCCCCC(=O)N[C@H](CN1CCCC1)[C@H](O)c1ccc2c(c1)OCCO2.O=S(=O)(O)c1cccc2c(S(=O)(=O)O)cccc12
Q: CCCCCCCC(=O)N[C@H](CN1CCCC1)[C@H](O)c1ccc2c(c1)OCCO2 [Free crystalline form A, reference compound]
Ask: Endpoint returns the identifier whose S: Solubility (free concentration) is numerically larger, either P or Q . Lab note: record the label of whichever item you select.
Result: Q
(Q: 4.2 mg/mL, P: 2.6 mg/mL)

###

- procedureDetails: Dynamic solubility test (water, SGF, FaSSIF, FeSSIF; 37° C.; 1, 4 and 24 hours)
- Type: physicochemical
- condition: H2O, 37° C., 1 hr
property: S: Solubility (free concentration) (µg/mL)

Known results for molecules:
molecule	observedMeasurement
CCCCCCCC(=O)N[C@H](CN1CCCC1)[C@H](O)c1ccc2c(c1)OCCO2 [Free crystalline form A, reference compound]	120
CCCCCCCC(=O)N[C@H](CN1CCCC1)[C@H](O)c1ccc2c(c1)OCCO2.CCCCCCCC(=O)N[C@H](CN1CCCC1)[C@H](O)c1ccc2c(c1)OCCO2.O.O.O=S(=O)(O)c1cccc2c(S(=O)(=O)O)cccc12	2000

A: CCCCCCCC(=O)N[C@H](CN1CCCC1)[C@H](O)c1ccc2c(c1)OCCO2.CCCCCCCC(=O)N[C@H](CN1CCCC1)[C@H](O)c1ccc2c(c1)OCCO2.O=S(=O)(O)c1cccc2c(S(=O)(=O)O)cccc12
B: CCCCCCCC(=O)N[C@H](CN1CCCC1)[C@H](O)c1ccc2c(c1)OCCO2.CCCCCCCC(=O)N[C@H](CN1CCCC1)[C@H](O)c1ccc2c(c1)OCCO2.O=C(O)C(=O)O [Crystalline form A of oxalate]
Ask: Among A and B , whose measured S: Solubility (free concentration) is the smaller figure? In your reply, give the label of the chosen option.
Result: A

###

- procedureDetails: Dynamic solubility test (water, SGF, FaSSIF, FeSSIF; 37° C.; 1, 4 and 24 hours)
- Format: physicochemical
- condition: H2O, 37° C., 12 hrs
property: S: Solubility (free concentration) (µg/mL)

molecule	property	unitSpec	observedMeasurement
CCCCCCCC(=O)N[C@H](CN1CCCC1)[C@H](O)c1ccc2c(c1)OCCO2.CCCCCCCC(=O)N[C@H](CN1CCCC1)[C@H](O)c1ccc2c(c1)OCCO2.O=S(=O)(O)c1cccc2c(S(=O)(=O)O)cccc12	S: Solubility (free concentration)	µg/mL	2000
CCCCCCCC(=O)N[C@H](CN1CCCC1)[C@H](O)c1ccc2c(c1)OCCO2.CCCCCCCC(=O)N[C@H](CN1CCCC1)[C@H](O)c1ccc2c(c1)OCCO2.O.O.O=S(=O)(O)c1cccc2c(S(=O)(=O)O)cccc12	S: Solubility (free concentration)	µg/mL	2000

1: CCCCCCCC(=O)N[C@H](CN1CCCC1)[C@H](O)c1ccc2c(c1)OCCO2.CCCCCCCC(=O)N[C@H](CN1CCCC1)[C@H](O)c1ccc2c(c1)OCCO2.O=C(O)C(=O)O [Crystalline form A of oxalate]
2: CCCCCCCC(=O)N[C@H](CN1CCCC1)[C@H](O)c1ccc2c(c1)OCCO2 [Free crystalline form A, reference compound]
Ask: Hi, I'm comparing 1 with 2 and wondering which one has the bigger number for S: Solubility (free concentration). Any idea? Refer to your chosen item by its label in the answer.
Result: 1
(1: 8000 µg/mL, 2: 170 µg/mL)
